Hey, just so you know, these numbers are from patent US10035790B2.

- experimental system: ligand binding domain of human RORγ (A262-S507) (Homo sapiens)
- Construct: made in house; host or cells: E. coli
- Sequence (P51449 262-507): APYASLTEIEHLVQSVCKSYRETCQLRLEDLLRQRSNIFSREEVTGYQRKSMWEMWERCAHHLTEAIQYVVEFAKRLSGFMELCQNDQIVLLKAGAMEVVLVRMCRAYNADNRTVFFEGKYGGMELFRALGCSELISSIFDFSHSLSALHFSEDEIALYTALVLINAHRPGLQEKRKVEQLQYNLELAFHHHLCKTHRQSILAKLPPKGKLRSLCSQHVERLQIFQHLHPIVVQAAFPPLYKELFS
- measurement notes: General RORγ SPA binding assay (competition with [3H]25-hydroxycholesterol)
- setup conditions: RORγ SPA binding assay, inhibition of [3H]25-hydroxycholesterol binding; read-out: IC50
measurement type: IC50 (nM)

Worked cases, IC50 given:
Sure, the documented IC50 for `C/C(=N\Oc1cccc(OC(F)(F)F)c1)c1cnc(C)nc1C1CCN(C(=O)Cc2c(F)cccc2F)CC1` is 10.6

Item: `Cc1ncc(C(=O)NCc2cc(C(F)(F)F)ccn2)c(C2CCN(C(=O)Cc3c(F)cccc3F)CC2)n1` | IC50: 72

Per the record, `C/C(=N\Oc1ccnc(C(F)(F)F)n1)c1cnc(C)nc1C1CCN(C(=O)Cc2c(F)cccc2F)CC1` has IC50 of 15.8

Value of IC50 reported for the molecule `COc1nc(C)c(-c2nnc(-c3ccnc(C(F)(F)F)n3)o2)c(C2CCN(C(=O)Nc3c(F)cccc3F)CC2)n1` is 1140

Entry `Cc1ncc(C(=O)NCc2cc(Cl)cc(Cl)c2)c(C2CCN(C(=O)Cc3c(F)cccc3F)CC2)n1` — recorded IC50 = 7.2

(a) C/C(=N/Oc1cc(F)nc(F)c1)c1cnc(N)nc1C1CCN(C(=O)Nc2c(F)cccc2F)CC1
(b) O=C(NCc1ccc(Cl)c(Cl)c1)c1cnc(-c2ccccc2)nc1C1CCN(C(=O)Cc2c(F)cccc2F)CC1
(c) Cc1nc(N)nc(C2CCN(C(=O)Nc3c(F)cccc3F)CC2)c1C(O)COc1cccc(C(F)(F)F)n1 (stereo not drawn)
(d) C/C(=N\Oc1cc(Cl)nc(C(F)(F)F)c1)c1cnc(C)nc1C1CCN(C(=O)Nc2c(F)cccc2F)CC1
(e) Cc1nc(C2CCN(C(=O)Cc3c(F)cccc3F)CC2)c(C(=O)NCc2cccc(Cl)c2)c(=O)[nH]1
Query :: Sort by IC50, descending. Please list the labels according to the requested order.
Result :: b, a, d, e, c
(b: 4200 nM, a: 92.7 nM, d: 21.4 nM, e: 10.9 nM, c: 4.2 nM)

(I) Cc1ncc(C(=O)NCc2cccc(Cl)c2)c(C2(F)CCN(C(=O)Cc3c(F)cccc3F)CC2)n1
(II) CCNc1ncc(/C(C)=N/Oc2ccnc(C(F)(F)F)c2)c(C2CCN(C(=O)Nc3c(F)cccc3F)CC2)n1
(III) Cc1nc(C)c(C(=O)COc2ccnc(C(F)(F)F)n2)c(C2CCN(C(=O)Nc3c(F)cccc3F)CC2)n1
(IV) Cc1cc(C)cc(CNC(C)c2cnc(C)nc2C2CCN(C(=O)Cc3c(F)cccc3F)CC2)c1 (stereo not drawn)
Query :: Arrange items by their IC50 values in increasing order. Provide your answer as the labels ordered per the instruction.
Result :: III, I, IV, II
(III: 1.7 nM, I: 3.4 nM, IV: 29.9 nM, II: 115 nM)
